Please respond with reported pEC50 for every item in the list.
Target: T1, full-length human SIRPαV2 (CAA71403.1) on cells (human, UniProt P78324 31-504)
T1 construct: one molecule for CHO-K1 and Expi-CHO transfectants (CAA71403.1) and for endogenous V2 on THP-1 cells and on CD14+ monocytes of V2/V2 donors; also called CHO-hSIRPαV2; αV2 WT
T1 sequence (P78324 other isoform, or with tags, fused parts or gaps): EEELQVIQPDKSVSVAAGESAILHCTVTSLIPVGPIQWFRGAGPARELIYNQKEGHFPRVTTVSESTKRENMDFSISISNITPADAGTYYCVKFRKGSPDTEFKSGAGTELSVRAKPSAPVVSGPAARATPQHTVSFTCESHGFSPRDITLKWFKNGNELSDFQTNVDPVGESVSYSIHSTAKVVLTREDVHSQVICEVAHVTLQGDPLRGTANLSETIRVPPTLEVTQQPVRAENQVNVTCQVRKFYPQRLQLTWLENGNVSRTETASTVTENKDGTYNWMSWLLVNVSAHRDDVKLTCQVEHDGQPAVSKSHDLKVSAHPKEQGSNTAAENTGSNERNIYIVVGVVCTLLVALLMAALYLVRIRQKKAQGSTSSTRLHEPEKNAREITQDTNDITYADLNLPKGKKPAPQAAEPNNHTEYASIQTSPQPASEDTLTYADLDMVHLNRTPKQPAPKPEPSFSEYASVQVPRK
Test: flow cytometry, CD14+ monocytes V2V2
Just so you know, pEC50 here is -log10 of the concentration in molar units; reply with that number alone.

Recorded result, Anti-SIRPα antibody KWAR23 (antibody, V domains shown) VH: EVQLQQSGAELVKPGASVKLSCTASGFNIKDYYIHWVQQRTEQGLEWIGRIDPEDGETKYAPKFQDKATITADTSSNTAYLHLSSLTSEDTAVYYCARWGAYWGQGTLVTVSS VL: QIVLTQSPAIMSASPGEKVTLTCSASSSVSSSYLYWYQQKPGSSPKLWIYSTSNLASGVPARFSGSGSGTSYSLTISSMEAEDAASYFCHQWSSYPRTFGAGTKLELK , pEC50: 10.00

Entry Antibody D (antibody, human IgG1, kappa, L234A L235A, V domains shown) VH: EVQLVESGGGLVQPGGSLRLSCAASGFTFSSFDMHWVRQPTGKGLEWVSTIGIAGDTYFPGSVKGRFTISRENAKNSLYLQMNSLRAGDTAVYYCARGGNWDDALDIWGQGTMVTVSS VL: DIQMTQSPSSLSASVGDRVTITCRASQDINNYLAWFQQKPGKAPKSLIYTASSLQSGVPSKFSGSGSGTDFTLTISSLQPEDFATYYCQQYNTYPYTFGQGTKLEIKR , pEC50 reported as 9.70

Documented pEC50 of Antibody E22 (antibody, human IgG1, kappa, L234A L235A, V domains shown) VH: QVQLQESGPGLVKPSETLSLTCTVSGGSIRDYYWSWIRQPPGKGLEWIGFIYYNGRTFYQSSLKSRVTISLDTSKNQFSLKMTSVTAADTAVYYCARVRAYSGIGLDGTDVWGQGTTVTVSS VL: DIVMTQSPLSLPVTPGEPASISCRSSQSLLYSTGYTYLDWYLQRPGQSPQLLIYGGSSRASGVPDRFSGSGSGTDFTLKISRVEAEDVGVFYCGQALQTPLTFGQGTKVEIKR : 9.40
